# Target System: T1, 14-3-3ζΔC12 (human, UniProt P63104 1-233)
# T1 construct: N-terminal glycine retained after TEV cleavage of the His tag; 14-3-3ζ, human, full-length construct with the 12 C-terminal residues deleted; Unlabelled for ITC; 15N, 13C, 2H labelled for the NMR titrations; also called 14-3-3ζ with the C-terminal 12 residues removed; source: E. coli BL21 (DE3) pLysS, purified (Ni Sepharose, TEV cleavage, second Ni Sepharose pass); not shown: His tag, N-terminal, …
# T1 sequence: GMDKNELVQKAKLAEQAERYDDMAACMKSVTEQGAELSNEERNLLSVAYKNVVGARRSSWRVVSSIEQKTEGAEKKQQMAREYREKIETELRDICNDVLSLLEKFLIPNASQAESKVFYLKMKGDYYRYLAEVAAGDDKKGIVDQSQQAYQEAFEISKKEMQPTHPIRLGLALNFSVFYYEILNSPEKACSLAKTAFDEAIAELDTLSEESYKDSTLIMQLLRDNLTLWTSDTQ
# Test Method Notes: ITC; VP-ITC, 25°C; ~1-2 mM peptide titrated in 5 uL aliquots into ~100-200 uM 14-3-3ζ in the cell; 50 mM sodium phosphate, 100 mM NaCl, 1 mM DTT, pH 6.8; one-site model; in duplicate
# Condition Label: both partners purified
Square brackets hold non-standard residues; d marks the D form. Ends that are not written are not given here. pS = N[C@@H](COP(=O)(O)O)C(=O)O
Assay Metric: Kd (µM)

a: KTPPRKSA[pS]LSNLHSLDR (Chibby (Cby), human, residues 12-29; free NH2 and COOH ends; also called Cby 18-mer WT; WT Cby 18-mer; source: synthetic peptide, bought: GenScript USA Inc) [pCby 18-mer]
b: KTPPRKSA[pS]LSNL (Chibby (Cby), human, residues 12-24; free NH2 and COOH ends; also called phosphorylated Cby peptide; source: synthetic peptide, bought: GenScript USA Inc) [pCby 13-mer]
Exercise: Between the entries labelled a and b , which has a larger Kd value on record? In your reply, give the label of the chosen option.
Key: b
